# ASSAY: Plasma pharmacokinetics of CMS and colistin after multi-dose intravenous infusions of CMS
# COND: human, plasma, iv, 2.5 mg/kg CBA; SD
Positions of bridges follow the written chain, without caps; N, C: chain ends. Non-standard residues stand in square brackets, D forms with d. Residues, ends and D or L forms follow the SMILES beside them. *: point of attachment. X1 = CC[C@H](C)CCCCC(=O)*; Dab = NCC[C@H](N)C(=O)O
QUANTITY: level at 48 h (ng/mL)
Write down the numeric answer in ng/mL and omit the unit.

Provide one value: measured level at 48 h of CC[C@H](C)CCCCC(=O)N[C@@H](CCN)C(=O)N[C@H](C(=O)N[C@@H](CCN)C(=O)N[C@H]1CCNC(=O)[C@H]([C@@H](C)O)NC(=O)[C@H](CCN)NC(=O)[C@H](CCN)NC(=O)[C@H](CC(C)C)NC(=O)[C@@H](CC(C)C)NC(=O)[C@H](CCN)NC1=O)[C@@H](C)O [colistin] (X1-[Dab]T[Dab][Dab][Dab][dL]L[Dab][Dab]T; lactam 4-C)
93

---

# ASSAY: Plasma pharmacokinetics of CMS and colistin after multi-dose intravenous infusions of CMS
# COND: human, plasma, iv, 2.5 mg/kg CBA, T1/2, Day 7 (last dose); CMS 2.5 mg/kg CBA i.v. q12 h 7 days; plasma; mean ± SD, n = 12; SD
Positions of bridges follow the written chain, without caps; N, C: chain ends. Non-standard residues stand in square brackets, D forms with d. Residues, ends and D or L forms follow the SMILES beside them. *: point of attachment. X1 = CC[C@H](C)CCCCC(=O)*; Dab = NCC[C@H](N)C(=O)O
QUANTITY: half-life (h)
Write down the numeric answer in h and omit the unit.

Provide one value: measured half-life of CC[C@H](C)CCCCC(=O)N[C@@H](CCN)C(=O)N[C@H](C(=O)N[C@@H](CCN)C(=O)N[C@H]1CCNC(=O)[C@H]([C@@H](C)O)NC(=O)[C@H](CCN)NC(=O)[C@H](CCN)NC(=O)[C@H](CC(C)C)NC(=O)[C@@H](CC(C)C)NC(=O)[C@H](CCN)NC1=O)[C@@H](C)O [colistin] (X1-[Dab]T[Dab][Dab][Dab][dL]L[Dab][Dab]T; lactam 4-C)
5.9

---

# ASSAY: Plasma pharmacokinetics of CMS and colistin after multi-dose intravenous infusions of CMS
# COND: human, plasma, iv, 2.5 mg/kg CBA, Tmax, Day 7 (last dose); CMS 2.5 mg/kg CBA i.v. q12 h 7 days; plasma; mean ± SD, n = 12; SD
Positions of bridges follow the written chain, without caps; N, C: chain ends. Non-standard residues stand in square brackets, D forms with d. Residues, ends and D or L forms follow the SMILES beside them. *: point of attachment. X1 = CC[C@H](C)CCCCC(=O)*; Dab = NCC[C@H](N)C(=O)O
QUANTITY: Tmax (h)
Write down the numeric answer in h and omit the unit.

Provide one value: measured Tmax of CC[C@H](C)CCCCC(=O)N[C@@H](CCN)C(=O)N[C@H](C(=O)N[C@@H](CCN)C(=O)N[C@H]1CCNC(=O)[C@H]([C@@H](C)O)NC(=O)[C@H](CCN)NC(=O)[C@H](CCN)NC(=O)[C@H](CC(C)C)NC(=O)[C@@H](CC(C)C)NC(=O)[C@H](CCN)NC1=O)[C@@H](C)O [colistin] (X1-[Dab]T[Dab][Dab][Dab][dL]L[Dab][Dab]T; lactam 4-C)
3.38

---

# ASSAY: Plasma pharmacokinetics of CMS and colistin after multi-dose intravenous infusions of CMS
# COND: human, plasma, iv, 2.5 mg/kg CBA; SD
Positions of bridges follow the written chain, without caps; N, C: chain ends. Non-standard residues stand in square brackets, D forms with d. Residues, ends and D or L forms follow the SMILES beside them. *: point of attachment. X1 = CC[C@H](C)CCCCC(=O)*; Dab = NCC[C@H](N)C(=O)O
QUANTITY: level at 72 h (ng/mL)
Write down the numeric answer in ng/mL and omit the unit.

Provide one value: measured level at 72 h of CC[C@H](C)CCCCC(=O)N[C@@H](CCN)C(=O)N[C@H](C(=O)N[C@@H](CCN)C(=O)N[C@H]1CCNC(=O)[C@H]([C@@H](C)O)NC(=O)[C@H](CCN)NC(=O)[C@H](CCN)NC(=O)[C@H](CC(C)C)NC(=O)[C@@H](CC(C)C)NC(=O)[C@H](CCN)NC1=O)[C@@H](C)O [colistin] (X1-[Dab]T[Dab][Dab][Dab][dL]L[Dab][Dab]T; lactam 4-C)
632

---

# ASSAY: Plasma pharmacokinetics of CMS and colistin after multi-dose intravenous infusions of CMS
# COND: human, plasma, iv, 2.5 mg/kg CBA, AUC0–12 (AUC0–12,ss), Day 7 (last dose, steady state); CMS 2.5 mg/kg CBA i.v. q12 h 7 days; plasma; mean ± SD, n = 12; SD
Positions of bridges follow the written chain, without caps; N, C: chain ends. Non-standard residues stand in square brackets, D forms with d. Residues, ends and D or L forms follow the SMILES beside them. *: point of attachment. X1 = CC[C@H](C)CCCCC(=O)*; Dab = NCC[C@H](N)C(=O)O
QUANTITY: AUC(0-t)
Don't forget the unit after the number, please.

Provide one value: measured AUC(0-t) of CC[C@H](C)CCCCC(=O)N[C@@H](CCN)C(=O)N[C@H](C(=O)N[C@@H](CCN)C(=O)N[C@H]1CCNC(=O)[C@H]([C@@H](C)O)NC(=O)[C@H](CCN)NC(=O)[C@H](CCN)NC(=O)[C@H](CC(C)C)NC(=O)[C@@H](CC(C)C)NC(=O)[C@H](CCN)NC1=O)[C@@H](C)O [colistin] (X1-[Dab]T[Dab][Dab][Dab][dL]L[Dab][Dab]T; lactam 4-C)
15300 ng·h/mL

---

# ASSAY: Plasma pharmacokinetics of CMS and colistin after multi-dose intravenous infusions of CMS
# COND: human, plasma, iv, 2.5 mg/kg CBA; SD
Positions of bridges follow the written chain, without caps; N, C: chain ends. Non-standard residues stand in square brackets, D forms with d. Residues, ends and D or L forms follow the SMILES beside them. *: point of attachment. X1 = CC[C@H](C)CCCCC(=O)*; Dab = NCC[C@H](N)C(=O)O
QUANTITY: level at 96 h
Don't forget the unit after the number, please.

Provide one value: measured level at 96 h of CC[C@H](C)CCCCC(=O)N[C@@H](CCN)C(=O)N[C@H](C(=O)N[C@@H](CCN)C(=O)N[C@H]1CCNC(=O)[C@H]([C@@H](C)O)NC(=O)[C@H](CCN)NC(=O)[C@H](CCN)NC(=O)[C@H](CC(C)C)NC(=O)[C@@H](CC(C)C)NC(=O)[C@H](CCN)NC1=O)[C@@H](C)O [colistin] (X1-[Dab]T[Dab][Dab][Dab][dL]L[Dab][Dab]T; lactam 4-C)
684 ng/mL

---

# ASSAY: Plasma pharmacokinetics of CMS and colistin after multi-dose intravenous infusions of CMS
# COND: human, plasma, iv, 2.5 mg/kg CBA, CLt, Day 1 (first dose); CMS 2.5 mg/kg CBA i.v.; mean ± SD, n = 12; SD
Positions of bridges follow the written chain, without caps; N, C: chain ends. Non-standard residues stand in square brackets, D forms with d. Residues, ends and D or L forms follow the SMILES beside them. *: point of attachment. X1 = CC[C@H](C)CCCCC(=O)*; Dab = NCC[C@H](N)C(=O)O
QUANTITY: clearance (mL/min/kg)
Write down the numeric answer in mL/min/kg and omit the unit.

Provide one value: measured clearance of CC[C@H](C)CCCCC(=O)N[C@@H](CCN)C(=O)N[C@H](C(=O)N[C@@H](CCN)C(=O)N[C@H]1CCNC(=O)[C@H]([C@@H](C)O)NC(=O)[C@H](CCN)NC(=O)[C@H](CCN)NC(=O)[C@H](CC(C)C)NC(=O)[C@@H](CC(C)C)NC(=O)[C@H](CCN)NC1=O)[C@@H](C)O [colistin] (X1-[Dab]T[Dab][Dab][Dab][dL]L[Dab][Dab]T; lactam 4-C)
3.5

---

# ASSAY: Plasma pharmacokinetics of CMS and colistin after multi-dose intravenous infusions of CMS
# COND: human, plasma, iv, 2.5 mg/kg CBA, T1/2, median, after the last dose; median, n = 12
Positions of bridges follow the written chain, without caps; N, C: chain ends. Non-standard residues stand in square brackets, D forms with d. Residues, ends and D or L forms follow the SMILES beside them. *: point of attachment. X1 = CC[C@H](C)CCCCC(=O)*; Dab = NCC[C@H](N)C(=O)O
QUANTITY: half-life (h)
Write down the numeric answer in h and omit the unit.

Provide one value: measured half-life of CC[C@H](C)CCCCC(=O)N[C@@H](CCN)C(=O)N[C@H](C(=O)N[C@@H](CCN)C(=O)N[C@H]1CCNC(=O)[C@H]([C@@H](C)O)NC(=O)[C@H](CCN)NC(=O)[C@H](CCN)NC(=O)[C@H](CC(C)C)NC(=O)[C@@H](CC(C)C)NC(=O)[C@H](CCN)NC1=O)[C@@H](C)O [colistin] (X1-[Dab]T[Dab][Dab][Dab][dL]L[Dab][Dab]T; lactam 4-C)
6.1
